// values below are reported pIC50
# TARGET_UNDER_TEST: human orexin-1 receptor (Homo sapiens, UniProt O43613)
# Construct: expressed in transfected cells; host or cells: CHO cells (G418 selection)
# Sequence (O43613 whole entry): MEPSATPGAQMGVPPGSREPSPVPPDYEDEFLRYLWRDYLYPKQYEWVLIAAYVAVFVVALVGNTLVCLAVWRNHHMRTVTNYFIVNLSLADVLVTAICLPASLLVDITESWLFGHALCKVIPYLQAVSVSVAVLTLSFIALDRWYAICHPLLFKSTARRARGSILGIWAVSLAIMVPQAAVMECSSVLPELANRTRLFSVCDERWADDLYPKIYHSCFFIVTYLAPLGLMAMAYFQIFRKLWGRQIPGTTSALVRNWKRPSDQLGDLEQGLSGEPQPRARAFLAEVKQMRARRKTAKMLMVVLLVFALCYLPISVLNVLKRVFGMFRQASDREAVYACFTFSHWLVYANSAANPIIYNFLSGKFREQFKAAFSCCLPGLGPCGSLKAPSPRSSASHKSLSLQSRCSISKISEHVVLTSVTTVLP
# PROTOCOL_DESCRIPTION: Intracellular calcium measurements (FLIPR), orexin receptor antagonistic activity, OX1
# Format: cell-based
# TEST_SETTINGS: CHO cells expressing human orexin-1 receptor; 3 nM orexin-A; FLIPR2
pIC50: −log10 of the molar value.

[
  {
    "MOLECULE": "Cc1cccc(-c2sc(C)nc2C(=O)N2C[C@@H]3CC(C)C[C@@H]3[C@H]2CNC(=O)c2cc(Cl)ccn2)c1 (some centres unmarked)",
    "TARGET_UNDER_TEST": "human orexin-1 receptor (Homo sapiens, UniProt O43613)",
    "pIC50": 7.62
  },
  {
    "MOLECULE": "Cc1cccc(-c2sc(C)nc2C(=O)N2C[C@@H]3CC(C)C[C@@H]3[C@H]2CNC(=O)c2c(C)noc2C)c1 (some centres unmarked)",
    "TARGET_UNDER_TEST": "human orexin-1 receptor (Homo sapiens, UniProt O43613)",
    "pIC50": 7.23
  },
  {
    "MOLECULE": "Cc1cccc(-c2sc(C)nc2C(=O)N2C[C@@H]3CC(C)C[C@@H]3[C@H]2CNC(=O)c2cnc3sccn23)c1 (some centres unmarked)",
    "TARGET_UNDER_TEST": "human orexin-1 receptor (Homo sapiens, UniProt O43613)",
    "pIC50": 8.15
  },
  {
    "MOLECULE": "Cc1cccc(-c2sc(C)nc2C(=O)N2C[C@@H]3CC(C)C[C@@H]3[C@H]2CNC(=O)c2noc3ccccc23)c1 (some centres unmarked)",
    "TARGET_UNDER_TEST": "human orexin-1 receptor (Homo sapiens, UniProt O43613)",
    "pIC50": 7.92
  },
  {
    "MOLECULE": "Cc1cccc(C(=O)NC[C@@H]2[C@H]3CC(C)C[C@H]3CN2C(=O)c2nc(C)sc2-c2cccc(C)c2)c1 (some centres unmarked)",
    "TARGET_UNDER_TEST": "human orexin-1 receptor (Homo sapiens, UniProt O43613)",
    "pIC50": 7.11
  }
]

Source: patent US8106215B2
